FYI, the data here is from patent US4988735A.

tested on: smooth muscle cells isolated from rat aorta; experiment: Inhibition of arterial smooth muscle cell proliferation; type: cell-based; settings: rat aorta smooth muscle cells; 24, 48 and 72 hours (time of the IC50 not stated)
MEASURED_PROPERTY: pIC50
Interpret pIC50 as the negative base-10 log of the concentration measured in mol/L.

Challenge: Please look up its pIC50: COc1cc(CN(C)CCN(C)CCC(c2ccc(F)cc2)c2ccc(F)cc2)cc(OC)c1OC [Compound II]
Response given: 5.00
